- assay.details: in vivo
- condition.notes: mouse, ip, LD50 expressed in Mg++ or Li+, intraperitoneal route
property.label: LD50 (mg/kg)
Express it in mg/kg; write the number only.

The recorded LD50 for CC(=O)NCCCS(=O)(=O)[O-].[Li+] is 157

The recorded LD50 for CC(=O)NCCCS(=O)(=O)O [Magnesium acetylhomotaurinate, magnesium N-acetylhomotaurinate] is 161

* * *

- System: hypermotility by ethanol
- assay.details: antagonism of the hypermotility caused by ethanol (Cott-Carlsson Engel Lindqvist test)
- Type: in vivo, mouse
- condition.notes: 400 mg per os
property.label: antagonism of the hypermotility by ethanol, result

CC(=O)NCCCS(=O)(=O)O [Magnesium acetylhomotaurinate, magnesium N-acetylhomotaurinate]; antagonism
CC(=O)NCCCS(=O)(=O)O [Calcium acetylhomotaurinate, calcium N-acetylhomotaurinate]; antagonism
